Experiment: NCI Yeast Anticancer Drug Screen. Data for the rad50 strain (AID 155);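 also: 0% = growth of vehicle-only cultures of the same strain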
Settings: S. cerevisiae rad50 strain growth inhibition; at 50.0 µM; active compounds read high
The panel holds about 79,000 compounds, 15% with a hit somewhere; the sample as a whole holds those more often.
Readout Type: growth inhibition (%)
Kindly answer with a numeric value in %, unit omitted.

Exercise: State its growth inhibition for this compound: O=c1nc2sc3ccccc3c(=O)n2[nH]1
Solution: -39.6

Exercise: Note growth inhibition for the compound shown: Cc1ccc(P(=O)(O)O)cc1C
Solution: -18.2

Exercise: Provide measured growth inhibition value, entry: OC(c1ccccc1)(c1c2ccccc2cc2ccccc12)C1CCC1 (stereo unspecified)
Solution: 16.8

Exercise: Return reported growth inhibition. Input compound: CSc1nc(NC2OCC(OC(C)=O)C(OC(C)=O)C2OC(C)=O)c(N=C(C)C(C)=O)c(=O)[nH]1 (stereo unspecified)
Solution: -3.9

Exercise: Quickly give me recorded growth inhibition for CN(C)c1ccc(C2N(C)CCN2C)cc1
Solution: -10.4

Exercise: Please report the measured growth inhibition for CC(=O)OCCOCNC(=S)N/N=C/c1ccccn1
Solution: 24.2

Exercise: Assign growth inhibition to the following record: OC1CCCCC1C1CCCCC1 (stereo unspecified)
Solution: 28.9

Exercise: Write down growth inhibition measured for item C=C(C)C1Cc2c(cc(O)c3c(=O)c4c(oc23)C(O)Oc2cc(OC)c(OC)cc2-4)O1 (stereo unspecified)
Solution: 9.15

Exercise: Supply recorded growth inhibition for CC1=NN(C(=O)CC(=O)NC(=O)CC(=O)Nc2ccccc2F)C(=O)C1N=Nc1ccc([N+](=O)[O-])cc1 (stereo unspecified) here.
Solution: 20.5

Exercise: Tell us which growth inhibition value is on record for CC1=NN(C(=O)c2ccc(Cl)cc2)C(=O)/C1=C/c1ccccc1O
Solution: 4.25

Exercise: For the compound Cc1cccc2c(C=O)c[nH]c12 , give its measured growth inhibition value.
Solution: 8.9

Exercise: State, in one line, measured growth inhibition of O=C1CN(CCN2CCCCC2)CC(=O)N2CCCCN12
Solution: -32

Exercise: Given the compound C[n+]1c(/C=C/C=C/c2ccccc2)oc2ccccc21 , write its reported growth inhibition.
Solution: -38.3

Exercise: Give the value of growth inhibition reported for the following: C=C1C2CCC3(CCC4C5(C)CCCC4(CN(C(C)=O)C5)C3C2)C1O (stereo unspecified)
Solution: 11.2

Exercise: Give reported growth inhibition value for CN(C)C=N[C@@H](C(=O)O)c1ccccc1
Solution: -8.85

Exercise: Tell me measured growth inhibition for NC(N)=N/N=C(/c1nc2ccc([N+](=O)[O-])cc2[nH]c1=O)C(O)c1ccco1 (stereo unspecified) please.
Solution: 10.1

----------
Can you tell me growth inhibition for the items I'm about to list?
Assay: NCI Yeast Anticancer Drug Screen. Data for the rad50 strain (AID 155);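 also: 0% = growth of vehicle-only cultures of the same strain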
Conditions: S. cerevisiae rad50 strain growth inhibition; at 50.0 µM; active compounds read high
This is part of a sample that, as a whole, favours compounds with a hit. Of some 79,000 tested, about 15% had one in any assay.
Numeric only. Scale: %

Exercise: Quickly give me recorded growth inhibition for NCCN1CCCCCc2ccccc21
Solution: -63.2

Exercise: For the compound CCC(=O)N1C(=O)C(C)C23c4ccccc4C(=O)N2CCCN13 (stereo unspecified) , give its measured growth inhibition value.
Solution: 4.35

Exercise: Please list growth inhibition recorded for the compound CCOC(=O)/C(F)=C/c1cccc(C)c1
Solution: -5.05

Exercise: Retrieve growth inhibition measured for C=C(Cl)C(C)(Cl)CCC(Cl)C(C)(C)Cl (stereo unspecified) and print it.
Solution: 21.9

Exercise: For CC(=O)OCC1OC(OC(C)=O)C(NC(=S)N(C)N=O)C(OC(C)=O)C1OC(C)=O (stereo unspecified) , write its growth inhibition.
Solution: 0.65

Exercise: Input CCOc1ccc(/C=N/O)cc1OCC , output reported growth inhibition.
Solution: -0.3

Exercise: Respond only with growth inhibition recorded for Cc1occ(Br)c(=O)c1O
Solution: 12.9

Exercise: For Cc1cc2c(cc1C=O)C(C)(C)CCC2 , write its growth inhibition.
Solution: 9.75

Exercise: Recall and state the measured growth inhibition for Cc1cccc(C)c1-n1c(C)nc2[nH]cc(C)c2c1=N .
Solution: 6.35

Exercise: Could you please provide reported growth inhibition for CCCCSc1nc2c([nH]1)c(=O)n(C)c(=O)n2C ? Thanks!
Solution: -0.75

Exercise: Please report the measured growth inhibition for CCOC1=C2C(C)(CCC3[C@@]4(C)C=CC(=O)C(C)(C)C4CC(O)[C@@]23C)C(c2ccoc2)C1=O (stereo partly specified)
Solution: 54

----------
Assay: NCI Yeast Anticancer Drug Screen. Data for the sgs1 mgt1 strain (AID 161);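 also: 0% = growth of cultures given vehicle only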
Conditions: S. cerevisiae sgs1 mgt1 strain, at 50.0 µM, active compounds read high
Compounds without any hit were thinned out: in the full panel of roughly 79,000, 15% have a hit.
Readout Type: growth inhibition (%)
Answer in %, number only, no unit symbol.

Exercise: Give the reported value of growth inhibition for this record: CC(=O)OCCSSCCOC(C)=O
Solution: 13

Exercise: Determine its reported growth inhibition: O=C(Nc1ccc(Cl)cc1)Nc1nnc2nc(C(C(=O)c3cccs3)c3nc4nnc(NC(=O)Nc5ccc(Cl)cc5)n4[nH]c3=O)c(=O)[nH]n12
Solution: 0.1

Exercise: Identify measured growth inhibition associated with COC(=O)C1=CCS(=O)(=O)C1
Solution: -4.3

Exercise: Find the measured growth inhibition of CN1c2ccccc2C2CC(CC#N)CC(=O)C21 (stereo unspecified) and report it.
Solution: -8.1

Exercise: Note down growth inhibition recorded for CC12C=CC(=O)C=C1CCC1C3CC(F)C(O)(C(=O)CO)C3(C)CC(O)C12F (stereo unspecified)
Solution: 3.25

Exercise: Tell me growth inhibition reported for O=c1[nH]c2ccccc2[nH]1
Solution: -7.6

Exercise: Annotate the compound Cc1nc2ccccc2c(=O)n1NC(=O)c1ccc([N+](=O)[O-])cc1 with its measured growth inhibition.
Solution: -13.5

Exercise: Give growth inhibition for the following compound: CC(=O)OC1CC2(c3ccccc3)C(=O)c3ccccc3N2O1 (stereo unspecified)
Solution: -11.8

Exercise: Supply measured growth inhibition of COc1ccccc1NC(=O)CC(=O)n1nc(-c2ccccc2)c(N=Nc2ccccc2[N+](=O)[O-])c1-c1ccccc1 in your reply.
Solution: 27.9

Exercise: Provide growth inhibition value for the following compound: Cc1nn(C(=O)c2ccccn2)c(-c2ccccc2)c1N=Nc1ccc(S(=O)(=O)Nc2ncccn2)cc1
Solution: 17.9

Exercise: Answer with reported growth inhibition of NC(=O)c1ccccc1NC(=O)Nc1ccc(Cl)cc1
Solution: 13.8

Exercise: Kindly indicate its recorded growth inhibition. Item: O/N=C1\CCCC\C1=N/O.O/N=C1\CCCC\C1=N/O.[Pt]
Solution: 8.05

Exercise: For Cc1ccc(P(=O)(O)O)cc1C , write its growth inhibition.
Solution: 0.3

Exercise: Supply recorded growth inhibition for C=[N+](CNC(=O)CNC(=O)C(Cc1ccc([N+](=O)[O-])cc1)NC(=O)OC(C)(C)C)C(=O)CNC(=O)C(Cc1ccc([N+](=O)[O-])cc1)NC(=O)OC(C)(C)C (stereo unspecified) here.
Solution: -29.4

Exercise: // Input: CCOC(=O)C(=O)N=Nc1nc2c(O)c3ccccc3c(O)c2s1 . Output its growth inhibition only.
Solution: 83

Exercise: Identify growth inhibition associated with the compound OCc1cc2ccc3ccccc3c2[nH]1
Solution: 47.9

----------
Experiment: NCI Yeast Anticancer Drug Screen. Data for the rad50 strain (AID 155);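 also: 0% = growth of vehicle-only cultures of the same strain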
Conditions: S. cerevisiae rad50 strain growth inhibition; at 50.0 µM; active compounds read high
This is part of a sample that, as a whole, favours compounds with a hit. Of some 79,000 tested, about 15% had one in any assay. Calls of active or inactive are those of the source. Cut-off read from the data, not from the text of the source: active = growth inhibition above about 70%; inactive = the rest.
Readout Type: growth inhibition

Exercise: For the compound CN(C)c1ccc(SSc2ccc(N(C)C)cc2)cc1 , give its reported growth inhibition.
Solution: -6.9% (inactive)

Exercise: Name the recorded growth inhibition of the item CC(CN(C)C)C(=O)C(=Cc1ccccc1)C(=O)C(C)CN(C)C (centres undefined) in your answer.
Solution: 40.1% (inactive)

Exercise: Consider the compound C=C(CCC(Cl)C(COS(=O)(=O)c1ccc(C)cc1)OC(CCCO[Si](c1ccccc1)(c1ccccc1)C(C)(C)C)OCC)[Si](C)(C)C (centres undefined) . State its measured growth inhibition.
Solution: 68.2% (inactive)

Exercise: Provide only the value of recorded growth inhibition for CC(NC(=O)C(N)CC(=O)O)NC(=O)N(C)C(C)(C)C (centres undefined)
Solution: -8.5% (inactive)

----------
Experiment: NCI Yeast Anticancer Drug Screen. Data for the mlh1 rad18 strain (AID 175)
Settings: S. cerevisiae mlh1 rad18 strain growth inhibition; at 50.0 µM
Procedure: Growth inhibition of yeast strains with defined genetic alterations is measured as a screen for potential anti-cancer activity. Selected strains with alterations in DNA damage repair or cell cycle control were exposed to compounds and growth inhibition was measured relative to vehicle treated controls. The strain used in this assay is mlh1 rad18
This is part of a sample that, as a whole, favours compounds with a hit. Of some 79,000 tested, about 15% had one in any assay. Activity calls are given as the source filed them. No stated cut-off is given here; in the data, active means growth inhibition above about 70%; inactive means the rest.
API: response.call in active, inactive

Exercise: Name the outcome recorded for O=S(=O)(c1ccccc1)c1cccc2c1NCCC2 in the assay.
Solution: inactive

Exercise: Fill in: this test's call for NC(Cc1cccnn1)C(=O)O (centres undefined) is ___
Solution: inactive

Exercise: Any idea what this test logged for CCN(CC)c1ccc(N=C2C=CC(=O)C(C)=C2)c(C)c1 ?
Solution: inactive

Exercise: Would you mind telling me which call this test gave CC1(C)CCCCCCC2CC2CCCCCC(C)(C)C1=O (centres undefined) ?
Solution: inactive

Exercise: Which result was noted for this molecule in the test: Cc1cc(C)c2ccc(NC(=O)CCC(=O)O)nc2n1
Solution: inactive

Exercise: I would be grateful if you could indicate the recorded call for COc1ccc(NC(=S)NN)cc1 .
Solution: inactive

Exercise: I'd appreciate the recorded outcome for Cn1c(Cl)cn2c3nc4ccccc4nc3c(=O)c(C#N)c12 from this test.
Solution: inactive

Exercise: Identify the outcome logged in this assay for the molecule shown: CCN(CC)CCOC(=O)c1ccc(N=Nc2cc(C(=O)O)ccc2O)cc1
Solution: inactive

Exercise: Would you mind telling me which call this test gave CC(c1ccccc1)n1cnc2c(Cl)ncnc21 (centres undefined) ?
Solution: inactive

Exercise: Which outcome was assigned to CC1=NN2C(=O)C(C)SC2=NC(C)(C)C1 (centres undefined) in this test?
Solution: inactive

Exercise: Name the outcome recorded for COc1cc(C2C(Cl)C(=O)N2NC(=O)c2ccc(NC(C)=O)cc2)cc(Br)c1O (centres undefined) in the assay.
Solution: inactive

Exercise: Hi, do you know how Nc1ncnc2c1nc(-c1ccccc1)n2C1OC(CO)C(O)C1O (centres undefined) came out in this test?
Solution: inactive

Exercise: What was the test verdict on Clc1nc(C(Cl)Cl)nc2ccccc12 ?
Solution: inactive

Exercise: Lab log entry: O=C(Nc1ccc(Cl)cc1)Nc1nnc2nc(C3(c4nc5nnc(NC(=O)Nc6ccc(Cl)cc6)n5[nH]c4=O)CCCC3=O)c(=O)[nH]n12 — outcome as called in the assay?
Solution: inactive

Exercise: # fetch the recorded call for O=C(CCC(=O)Nc1cc(Cl)ccc1Cl)CC(=O)c1ccc([N+](=O)[O-])cc1 here
Solution: inactive

Exercise: For this molecule, state the assay outcome: O=C(c1nc2ccc([N+](=O)[O-])cc2[nH]c1=O)C(O)c1ccc([N+](=O)[O-])cc1 (centres undefined)
Solution: inactive

Exercise: Called result for COC(=O)C1CCc2c(ccc3cc(OC)ccc23)C1(C)C(=O)OC (centres undefined)
Solution: inactive

Exercise: // return assay outcome for CCOC(=O)N1CC2CCc3c(ccc4ccccc34)N2C1=O (centres undefined)
Solution: inactive

Exercise: Field: outcome | Entry: ON1c2ccccc2-c2ccccc2C1(c1ccccc1)c1ccccc1
Solution: active

Exercise: # fetch the recorded call for O=C(N=C1[Se]C(=Nc2ccccc2)C(=Nc2ccccc2)N1c1ccc(Cl)cc1)c1ccccc1 here
Solution: inactive

Exercise: // param item: CCOc1ccc2ccc3ccccc3c2c1NC(C)=O ; yields the recorded call
Solution: inactive

Exercise: Which result was noted for this molecule in the test: CCN(CC)CCN1C(=O)c2cccc3cc(N)cc(c23)C1=O
Solution: inactive

Exercise: Assay outcome for CCOC(=O)C[P+](c1ccc(OC)cc1)(c1ccc(OC)cc1)c1ccc(OC)cc1 : what was it?
Solution: active

Exercise: Returns: the outcome recorded for OC1C(O)C2CC1C1C2C2(Cl)CC1(Cl)C(Cl)=C2Cl (centres undefined) in this assay.
Solution: inactive

Exercise: Which outcome was assigned to CC1(C)CCc2cc3c(O)c(-c4ccccc4)c(=O)oc3cc2O1 in this test?
Solution: inactive

Exercise: Assay result, entry CC(C)CCC(C)(C)COC(=O)c1ccc([N+](=O)[O-])cc1 (tested in a mixture with another compound) — outcome?
Solution: inactive

Exercise: Look up the recorded call for COc1ccccc1/C=C1\CCC(CCN(C)C)(C2=CCCC2)C1=O (centres undefined) in this test.
Solution: inactive

Exercise: Which result was noted for this molecule in the test: Nc1nc(N)c(-c2ccccc2)c(C(=O)Nc2ccc(Cl)c(Cl)c2)n1
Solution: inactive

Exercise: Please state the recorded outcome for this molecule: O=[N+]([O-])c1ccc2c3c(ccc([N+](=O)[O-])c13)CC2
Solution: inactive

Exercise: Test call for this molecule, please: COc1ccc(-c2c3ccccc3c(-c3ccc(OCCCCCBr)cc3)c3ccccc23)cc1
Solution: inactive

Exercise: Hey, what did the test say about CC(=O)Nc1ccc2c(=O)cc[nH]c2n1 ?
Solution: inactive

Exercise: Short answer needed: outcome of this test for CCOC(=O)c1c(N)sc2c1C(C(=O)OCC)CCC2 (centres undefined) ?
Solution: inactive

Exercise: I'd appreciate the recorded outcome for CCCCCCCN=C(N)CSSCC(N)=NCCCCCCC from this test.
Solution: active

Exercise: Called result for Cc1ccc(NC(=O)C(=O)C(C#N)c2nc(-c3ccc(-c4ccccc4)cc3)cs2)c(C)c1 (centres undefined)
Solution: inactive
